meta.source: patent US9340577B2

Let's look at some sequences and their measured IC50.
Target system: HLA-A11 (A*1101) (Homo sapiens, UniProt P04439, A114D/D185E/E176A/F33Y/L180Q/S129P/T187R)
Experimental details: biochemical
Assay type: binding
No end group written: not given here.

| Sequence record | Unit name | IC50 |
| --- | --- | --- |
| STTETADPK [Peptide 88.0441] | nM | 17 |
| VVYRLVWDK [Peptide 1589.38] | nM | 13 |
| GTFKCSAGK [Peptide 88.0373] | nM | 14 |

###

Let's look at some sequences and their measured IC50.
Target system: DRB1*0802 (Homo sapiens, UniProt P01903+P01911, A100R/A103L/A169T/F76Y/H45Y/I96F/K41T/L162R/M171V/P40S/Q125H/Q178H/Q39Y/Q99D/R218S/R42G/S66Y/V115G/W38E)
Experimental details: biochemical
Type: binding
No end group written: not given here.
Assay readout: IC50

| Sequence record | Assay readout | Recorded measurement |
| --- | --- | --- |
| ISEVMGDTPEWIQRL [Peptide 90.0052] | IC50 | > 20 µM |
| IWEVHMENESIYCPD [Peptide 90.0237] | IC50 | > 20 µM |
| TVEVQFDGDICNTMH [Peptide 90.0167] | IC50 | > 20 µM |
| PRWLCAGALVLAGGF [Peptide 68.0083] | IC50 | > 20 µM |
| WCIIGMGVTPSVAEG [Peptide 89.0097] | IC50 | > 20 µM |
| LIRMECALLYTAKQM [Peptide 89.0179] | IC50 | > 20 µM |
| NTEVETQQMVQQVES [Peptide 89.0059] | IC50 | > 20 µM |
| STWHWTGCNKNTGIL [Peptide 1601.38] | IC50 | 11.7 µM |
| DSVDSVNCGVISAAA [Peptide 1601.24] | IC50 | > 20 µM |
| LKEFLKGTPKKNCIL [Peptide 89.0086] | IC50 | 3.2 µM |
| NTTPIIHLKGDKNSL [Peptide 1601.37] | IC50 | 1.9 µM |
| KHIRLLECVLMYKARE [Peptide 1601.44] | IC50 | 1.77 µM |
| EIYIIEEDTCTMVTG [Peptide 90.0203] | IC50 | > 20 µM |
